- test system: CD28 (Homo sapiens, UniProt P10747)
- protocol text: Flow binding to Jurkat/IL2 reporter cells (CD28)
- Set-up: host or cells: Jurkat cells expressing an IL-2-luciferase reporter
- measurement parameters: Table E4; 33.3 nM; Jurkat cells (CD28)
readout type: CD28 MFI at 33.3 nM
Lab note: record just the number, no unit beside it.

Record excerpt, results attached:
molecule | CD28 MFI at 33.3 nM
A26E/E35D/M47L/A71G (protein) VIHVTKEVKEVATLSCGHNVSVEELEQTRIYWQKDKKMVLTMMSGDLNIWPEYKNRTIFDITNNLSIVILGLRPSDEGTYECVVLKYEKDAFKREHLAEVTLSVKAD | 2161
V22D/E35D/M47L/L85Q (protein, CD80 v261 ECD) VIHVTKEVKEVATLSCGHNVSDEELAQTRIYWQKDKKMVLTMMSGDLNIWPEYKNRTIFDITNNLSIVILALRPSDEGTYECVVQKYEKDAFKREHLAEVTLSVKADFPTPSISDFETPTSNIRRIICSTSGGFPEPHLSWLENGEELNAINTTVSQDPETELYAVSSKLDFNMTTNHSFMCLIKYGHLRVNQTFNWNTTKQEHFPDN | 542

Need CD28 MFI at 33.3 nM, item E35D/M47I/Y87Q/K89E (protein, UniProt P33681 35-288, looked up, variant E35D M47I Y87Q K89E) T-lymphocyte activation …: VIHVTKEVKEVATLSCGHNVSVEELAQTRIYWQKDKKMVLTMMSGDINIWPEYKNRTIFDITNNLSIVILALRPSDEGTYECVVLKQEEDAFKREHLAEVTLSVKADFPTPSISDFEIPTSNIRRIICSTSGGFPEPHLSWLENGEELNAINTTVSQDPETELYAVSSKLDFNMTTNHSFMCLIKYGHLRVNQTFNWNTTKQEHFPDNLLPSWAITLISVNGIFVICCLTYCFAPRCRERRRNERLRRESVRPV
15452

E35D/M47V/A71G (protein, UniProt P33681 35-288, looked up, variant E35D M47V A71G) T-lymphocyte activation …: VIHVTKEVKEVATLSCGHNVSVEELAQTRIYWQKDKKMVLTMMSGDVNIWPEYKNRTIFDITNNLSIVILGLRPSDEGTYECVVLKYEKDAFKREHLAEVTLSVKADFPTPSISDFEIPTSNIRRIICSTSGGFPEPHLSWLENGEELNAINTTVSQDPETELYAVSSKLDFNMTTNHSFMCLIKYGHLRVNQTFNWNTTKQEHFPDNLLPSWAITLISVNGIFVICCLTYCFAPRCRERRRNERLRRESVRPV ?
6360

E35D/M47V/A71G/E88D (protein, UniProt P33681 35-288, looked up, variant E35D M47V A71G E88D) T-lymphocyte activation …: VIHVTKEVKEVATLSCGHNVSVEELAQTRIYWQKDKKMVLTMMSGDVNIWPEYKNRTIFDITNNLSIVILGLRPSDEGTYECVVLKYDKDAFKREHLAEVTLSVKADFPTPSISDFEIPTSNIRRIICSTSGGFPEPHLSWLENGEELNAINTTVSQDPETELYAVSSKLDFNMTTNHSFMCLIKYGHLRVNQTFNWNTTKQEHFPDNLLPSWAITLISVNGIFVICCLTYCFAPRCRERRRNERLRRESVRPV ?
6237

H18Y/A26E/E35D/M47L/L85Q/D90G (protein, UniProt P33681 35-288, looked up, variant H18Y A26E E35D M47L L85Q D90G) T-lymphocyte activation …: VIHVTKEVKEVATLSCGYNVSVEELEQTRIYWQKDKKMVLTMMSGDLNIWPEYKNRTIFDITNNLSIVILALRPSDEGTYECVVQKYEKGAFKREHLAEVTLSVKADFPTPSISDFEIPTSNIRRIICSTSGGFPEPHLSWLENGEELNAINTTVSQDPETELYAVSSKLDFNMTTNHSFMCLIKYGHLRVNQTFNWNTTKQEHFPDNLLPSWAITLISVNGIFVICCLTYCFAPRCRERRRNERLRRESVRPV ?
3540

E35D/L85Q/K93I/E95V/L97Q (protein) VIHVTKEVKEVATLSCGHNVSVEELAQTRIYWQKDKKMVLTMMSGDMNIWPEYKNRTIFDITNNLSIVILALRPSDEGTYECVVQKYEKDAFTRVHQAEVTLSVKAD ?
400
